cell viability for assorted compounds
- System: SEM cells
- protocol-text: cell viability relative to DMSO control; higher = less cytotoxic
- conditions-used: RPMI 5 mM glucose + 10% dialyzed FBS; 48 h; 46.1 µM
Report the figure in % without appending any unit label.

Solved cases below.
[
  {
    "compound": "CCOC(=O)c1c(/C(C#N)=C\\N)c2ccc(Cl)c(Cl)c2n1C",
    "experimental-system": "SEM cells",
    "cell viability, %": 76.9
  },
  {
    "compound": "CN(C)Cc1cccc(N/C(=C2\\C(=O)Nc3cc(C(=O)N(C)C)ccc32)c2ccccc2)c1",
    "experimental-system": "SEM cells",
    "cell viability, %": 1.38
  },
  {
    "compound": "CCC1=C2CN3C(=O)\\C4=C(/C=C3/C2=NC5=CC=C(O)C=C15)[C@@](O)(CC)C(=O)OC4",
    "experimental-system": "SEM cells",
    "cell viability, %": 4.62
  },
  {
    "compound": "Clc1ccc2c(N3CCN(CCCN4CCN(c5ccnc6cc(Cl)ccc56)CC4)CC3)ccnc2c1",
    "experimental-system": "SEM cells",
    "cell viability, %": 69.9
  },
  {
    "compound": "CC[C@@H](C)[C@H](NC(=O)[C@H](CC1CCCCC1)NC(=O)c1ccno1)C(=O)N1CCC2(CCc3ccccc32)CC1",
    "experimental-system": "SEM cells",
    "cell viability, %": 91.9
  },
  {
    "compound": "Clc1ccc(C(Cn2ccnc2)OCc2ccsc2Cl)c(Cl)c1 (stereo not drawn)",
    "experimental-system": "SEM cells",
    "cell viability, %": 55.9
  },
  {
    "compound": "CC(=O)OCC(CCn1cnc2cnc(N)nc21)COC(C)=O",
    "experimental-system": "SEM cells",
    "cell viability, %": 95.6
  },
  {
    "compound": "COc1c(C)c2c(c(O)c1C/C=C(\\C)CCC(=O)OCCN1CCOCC1)C(=O)OC2",
    "experimental-system": "SEM cells",
    "cell viability, %": 32.6
  }
]

Data request: Query: cell viability; subject: N[C@@H](Cc1ccc(N(CCCl)CCCl)cc1)C(=O)O
Data returned: 5.98

Data request: # lookup: cell viability of Oc1ccc(C2CNCCc3c2cc(O)c(O)c3Cl)cc1 (stereo not drawn)
Data returned: 102

Data request: Give the measured cell viability of CCCCCCCN(CC)CCCC(O)c1ccc(NS(C)(=O)=O)cc1.CCCCCCCN(CC)CCCC(O)c1ccc(NS(C)(=O)=O)cc1.O=C(O)/C=C/C(=O)O (stereo not drawn) .
Data returned: 11.6

Data request: Value lookup for cell viability; key = CC1(C)NC(=O)N(c2ccc([N+](=O)[O-])c(C(F)(F)F)c2)C1=O
Data returned: 90

Data request: Bench note: what cell viability did O=C(Nc1cccc2c(=O)cc(-c3nnn[nH]3)oc12)c1ccc(OCCCCc2ccccc2)cc1 show?
Data returned: 33.2

Data request: Query: cell viability; subject: COc1ccc(CC2SC(=O)NC2=O)cc1C(=O)NCc1ccc(C(F)(F)F)cc1 (stereo not drawn)
Data returned: 56.1

---

The following compounds are shown together with reported cell viability values.
- Tested on: SEM cells
- protocol-text: cell viability relative to DMSO control; higher = less cytotoxic
- conditions-used: RPMI 5 mM glucose + 10% dialyzed FBS; 48 h; 15.4 µM
Number in %, nothing else.

[
  {
    "compound": "Clc1ccc(C(Cn2ccnc2)OCc2ccsc2Cl)c(Cl)c1 (centres undefined)",
    "recorded-number": 105
  },
  {
    "compound": "CCOC\\1=C(/C(=O)NC2=CC=C(OC3=C(Cl)C(=NC=C3)N)C(=C2)F)C(=O)N(\\C=C1)C4=CC=C(F)C=C4",
    "recorded-number": 22.9
  },
  {
    "compound": "Clc1ccc2c(N3CCN(CCCN4CCN(c5ccnc6cc(Cl)ccc56)CC4)CC3)ccnc2c1",
    "recorded-number": 109
  }
]

Then there is this compound:
Data request: Quick one: cell viability of CN(C)c1ccccc1CN1CCCN(Cc2ccccc2N(C)C)C1c1ccncc1 ?
Data returned: 87.8
